Listed binders paired with reported EC50
target: T1, rhesus serum albumin (rhesus, UniProt Q28522 17-600); experiment: direct binding ELISA, albumin coated
T1 construct: also called RhSA; Rh-SA
T1 sequence (Q28522 17-600 limits assumed): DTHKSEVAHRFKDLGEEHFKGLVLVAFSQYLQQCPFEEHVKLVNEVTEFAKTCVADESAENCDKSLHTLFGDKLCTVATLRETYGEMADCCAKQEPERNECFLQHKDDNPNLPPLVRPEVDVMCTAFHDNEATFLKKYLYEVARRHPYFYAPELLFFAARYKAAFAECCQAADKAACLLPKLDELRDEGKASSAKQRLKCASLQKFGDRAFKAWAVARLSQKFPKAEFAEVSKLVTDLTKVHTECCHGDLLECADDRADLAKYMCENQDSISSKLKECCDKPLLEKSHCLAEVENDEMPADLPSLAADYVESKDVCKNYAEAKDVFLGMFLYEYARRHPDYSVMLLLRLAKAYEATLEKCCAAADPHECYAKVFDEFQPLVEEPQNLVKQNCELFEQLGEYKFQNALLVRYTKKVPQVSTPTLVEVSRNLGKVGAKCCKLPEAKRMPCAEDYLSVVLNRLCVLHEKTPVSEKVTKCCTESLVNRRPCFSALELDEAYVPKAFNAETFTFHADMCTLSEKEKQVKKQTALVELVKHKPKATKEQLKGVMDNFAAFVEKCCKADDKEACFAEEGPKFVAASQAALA
Value expressed in nM; do not type the unit.

PKE2 Adnectin 2629_E06 (designed binder, 10Fn3 domain with modified CD loop; the entry includes the His6 tail; also called ADX_2629_E06) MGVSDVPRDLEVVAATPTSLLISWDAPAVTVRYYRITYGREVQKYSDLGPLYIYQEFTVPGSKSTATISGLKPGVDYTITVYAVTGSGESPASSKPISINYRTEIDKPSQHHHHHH :: 10.5

INPUT: Query: EC50; subject: PCSK9-PKE2 tandem 4472_F08 (designed binder, The real molecule is ONE polypeptide: PCSK9 domain, undisclosed linker F, PKE2 domain. It is given here as two chains because the linker letters are unknown., not shown: The inter-domain linker) PCSK9 domain: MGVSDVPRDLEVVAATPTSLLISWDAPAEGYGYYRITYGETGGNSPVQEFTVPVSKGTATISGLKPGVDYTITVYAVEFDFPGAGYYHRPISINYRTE PKE2 domain: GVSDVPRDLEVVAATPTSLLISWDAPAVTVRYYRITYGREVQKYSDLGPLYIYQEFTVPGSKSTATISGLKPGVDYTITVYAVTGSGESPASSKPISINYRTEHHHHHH
OUTPUT: 35.2
